Sourced from patent US20260193326A1

# TARGET_UNDER_TEST: T1, AAV5
# T1 construct: also called adeno-associated virus serotype 5
# RUN_DESCRIPTION: SPR, AAV on CM5 chip;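 also: surface plasmon resonance with AAV amine-coupled to the chip as ligand, nanobodies injected as analyte over a concentration series, rate constants and affinity fitted from binding curves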
READOUT_LABEL: koff

BINDER	READOUT_LABEL	RESULT
A4-021 (VHH) VHH: VQLQESGGGLVQAGGSLRLSCAASGSTFSINTMGWYRQAPGKQRELVATITRGGNTNYADSVKGRFTISRDNAKNTVYLQMNSLRPEDTAVYYCHVDEVRQSSWTTSNIWGQGTQVTVSS	koff	0.00094 s⁻¹
A4-037 (VHH) VHH: VQLQESGGGLVQPGGSLRLSCAASGSIFSINTMGWYRQAPGKQRELVATVTRGGSTNYAGSVKGRFTISRDNAKNTVYLQMNSLRPEDTAVYYCHLDEVRQSSWTTSNIWGQGTQVTVSS	koff	0.00012 s⁻¹
A4-045 (VHH) VHH: VQLQESGGGLVQPGGSLRLSCAASGSSFSINTMGWYRQAPGKQRELVAAVTRGGVTNYADSVKGRFTISRDNAKNTVYLQMNSLRPEDTAVYYCHVDEVRQSSWTTSNLWGQGTQVTVSS	koff	0.00037 s⁻¹
A4-002 (VHH) VHH: VQLQESGGGLVQPGGSLRLSCAASGRSFSINTMGWYRQAPGKQRELVAAVTRGGSTNYAGSVKGRFTISRDNAKNTVYLQMNSLRPEDTAVYYCHIDEVRQSSWTTSNIWGQGTQVTVSS	koff	0.00063 s⁻¹
A4-011 (VHH) VHH: VQLQESGGGLVQAGGSLRLSCAASGSIFSINSMGWYRQAPGKQRELVATVTRGGNTNYAGSVKGRFTISRDNAKNTVYLQMNSLRPEDTAVYYCHVDEVRESSWTTSNLWGQGTQVTVSS	koff	0.00028 s⁻¹
A4-035 (VHH) VHH: VQLQESGGGLVQAGGSLRLSCAASGRGFSINTMGWYRQAPGKQRELVAAVTRGGTTNYADSVKGRFTISRDNAKNTVYLQMNSLRPEDTAVYYCHVDEVRQSSWTTSNLWGQGTQVTVSS	koff	0.0005 s⁻¹
A4-004 (VHH) VHH: VQLQESGGGLVQPGGSLRLSCAASGSRFSINTMGWYRQAPGKQRELVAAVTRGGSTNYAGSVKGRFTISRDNAKNTVYLQMNSLRPEDTAVYYCHIDEVRQSSWTTSNIWGQGTQVTVSS	koff	0.00678 s⁻¹
A4-044 (VHH) VHH: VQLQESGGGLVQPGGSLRLSCAASGSSFSINTMGWYRQAPGKQRELVATVTRGGVTNYADSVKGRFTISRDNAKNTVYLQMNSLRPEDTAVYYCHVDEVRQSSWTTSNLWGQGTQVTVSS	koff	0.00137 s⁻¹
A4-041 (VHH) VHH: VQLQESGGGLVQPGGSLRLSCAASGRGFSINTMGWYRQAPGKQRELVATVTRGGSTNYANSVKGRFTISRDNAKNTVYLQMNSLRPEDTAVYYCHVDELRQSSWTTSNLWGQGTQVTVSS	koff	0.00616 s⁻¹
A4-027 (VHH) VHH: VQLQESGGGLVQPGGSLRLSCAASGSNFSINTMGWYRQAPGKQRELVAALTRGGSTNYADSVKGRFTISRDNAKNTVYLQMNSLRPEDTAVYYCHVDEVRESSWTTSNLWGQGTQVTVSS	koff	0.00194 s⁻¹
A4-048 (VHH) VHH: VQLQESGGGLVQPGGSLRLSCAASGSMFSINTMGWYRQAPGKQRELVATVTRGGNTNYAGSVKGRFTISRDNAKNTVYLQMNSLRPEDTAVYYCHVDEVRQSSWTTSNLWGQGTQVTVSS	koff	0.00051 s⁻¹
A4-033 (VHH) VHH: VQLQESGGGLVQPGGSLRLSCVASGSSFSINTMGWYRRAPGKQRELVATVTRDGSTNYANSVKGRFTISRDNAKNTVYLQMNSLRPEDTAVYYCHVDEVRQSSWTTSNLWGQGTQVTVSS	koff	0.002 s⁻¹
A4-034 (VHH) VHH: VQLQESGGGLVQPGGSLRLSCAASGRGFSINTMGWYRQAPGKQRELVAAVTRGGTTNYADSVKGRFTISRDNAKNTVYLQMNSLRPEDTAVYYCHVDEVRQSSWTTSNLWGQGTQVTVSS	koff	0.00021 s⁻¹
A4-022 (VHH) VHH: VQLQESGGGLVQPGGSLRLSCAASGSGFSINTMGWYRQAPGKQRELVATVTRDGSTNYADFVKGRFTISRDNAKNTVYLQMNSLRPEDTAVYYCHLDEVRESSWTTSNLWGQGTQVTVSS	koff	0.00152 s⁻¹
A4-026 (VHH) VHH: VQLQESGGGLVQPGGSLRLSCAASGSNFRINTMGWYRQAPGKQRELVAPVTRGGSTNYADSVKGRFTISRDNAKNTVYLQMNSLRPEDTAVYYCHVDEVRESSWTTSNLWGQGTQVTVSS	koff	0.00625 s⁻¹
